Target: T1, Cdc13-L91R (Saccharomyces cerevisiae, UniProt P32797 1-924, L91R)
T1 sequence: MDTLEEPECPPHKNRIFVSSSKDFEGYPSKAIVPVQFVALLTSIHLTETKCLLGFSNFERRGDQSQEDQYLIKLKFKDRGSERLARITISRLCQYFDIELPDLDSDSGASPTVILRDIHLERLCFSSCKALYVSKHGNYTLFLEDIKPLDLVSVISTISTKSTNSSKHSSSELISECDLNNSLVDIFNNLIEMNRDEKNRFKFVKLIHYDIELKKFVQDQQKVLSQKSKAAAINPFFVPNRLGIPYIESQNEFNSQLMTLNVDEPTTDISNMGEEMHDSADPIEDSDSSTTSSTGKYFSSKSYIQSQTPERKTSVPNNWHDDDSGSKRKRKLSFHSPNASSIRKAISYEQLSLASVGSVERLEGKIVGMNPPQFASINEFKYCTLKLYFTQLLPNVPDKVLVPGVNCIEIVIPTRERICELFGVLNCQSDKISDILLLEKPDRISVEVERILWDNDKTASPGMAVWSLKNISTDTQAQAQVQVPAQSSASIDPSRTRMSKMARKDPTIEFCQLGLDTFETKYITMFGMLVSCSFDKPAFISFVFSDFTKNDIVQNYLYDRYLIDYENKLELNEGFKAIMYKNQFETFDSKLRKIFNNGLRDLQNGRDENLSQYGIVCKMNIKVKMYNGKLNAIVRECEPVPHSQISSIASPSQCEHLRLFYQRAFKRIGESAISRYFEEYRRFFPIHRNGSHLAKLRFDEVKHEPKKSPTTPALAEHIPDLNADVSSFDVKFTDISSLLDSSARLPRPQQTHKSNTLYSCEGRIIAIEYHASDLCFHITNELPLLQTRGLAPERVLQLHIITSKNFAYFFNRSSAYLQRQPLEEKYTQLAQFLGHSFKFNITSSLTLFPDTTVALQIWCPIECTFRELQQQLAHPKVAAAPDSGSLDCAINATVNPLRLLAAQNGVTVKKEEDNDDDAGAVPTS
Assay: filter binding
Measured property: pKd
Please treat pKd as minus the base-10 logarithm of the molar concentration.

Request: Consider the binder GTGTGGGTGTG (ssDNA) [Tel11] and give its recorded pKd.
Result: 9.66

The origin of these recorded values is paper PMC3874162.
